Target: HLA-A*68:02
Experiment: IEDB peptide-MHC binding, purified MHC/competitive/fluorescence; filed as Kd, often an IC50 or EC50 that approximates it; bounds were set here for any values at or beyond the usual limits of such assays
Conditions: source organism: Zaire ebolavirus
measure: Kd (µM)

- FIYFGKKQY: 4.98

---

Biological target: HLA-A*30:01
Experiment: IEDB peptide-MHC binding, purified MHC/competitive/radioactivity; filed as Kd, often an IC50 or EC50 that approximates it; bounds were set here for any values at or beyond the usual limits of such assays
Details: source organism: Mammarenavirus choriomeningitidis
measure: Kd (µM)

• VTERIFREY = 4.01

---

Molecular target: HLA-B*15:01
Test: IEDB peptide-MHC binding, purified MHC/competitive/fluorescence; filed as Kd, often an IC50 or EC50 that approximates it; bounds were set here for any values at or beyond the usual limits of such assays
Details: source organism: Entamoeba dispar SAW760
Documented Kd across a set of sequences
measure: Kd

- LVGNTLTTC: ≥ 20 µM
- FELLHFISS: ≥ 20 µM

---

Target: HLA-B*44:02
Experiment: IEDB peptide-MHC binding, purified MHC/direct/fluorescence; filed as Kd, often an IC50 or EC50 that approximates it; bounds were set here for any values at or beyond the usual limits of such assays
Conditions: source organism: Dengue virus
measure: Kd (µM)

- QEGAMHTAL: 6.66

---

Molecular target: HLA-A*26:01
Assay: IEDB peptide-MHC binding, purified MHC/competitive/radioactivity; filed as Kd, often an IC50 or EC50 that approximates it; bounds were set here for any values at or beyond the usual limits of such assays
Details: source organism: Dengue virus 3 Martinique/1243/1999
measure: Kd (µM)

* ETPNMDVIGE | 1.1

---

Molecular target: HLA-B*46:01
Assay: IEDB peptide-MHC binding, purified MHC/direct/fluorescence; filed as Kd, often an IC50 or EC50 that approximates it; bounds were set here for any values at or beyond the usual limits of such assays
Details: source organism: Influenza A virus (A/England/627/01(H1N2))
measure: Kd

• KMARLGKGY = ≥ 20 µM

---

Target: HLA-C*07:02
Test: IEDB peptide-MHC binding, purified MHC/direct/fluorescence; filed as Kd, often an IC50 or EC50 that approximates it; bounds were set here for any values at or beyond the usual limits of such assays
Conditions: source organism: Entamoeba dispar SAW760
measure: Kd

• YYSNKVFPI = 245 nM

---

Molecular target: HLA-B*15:17
Experiment: IEDB peptide-MHC binding, purified MHC/direct/fluorescence; filed as Kd, often an IC50 or EC50 that approximates it; bounds were set here for any values at or beyond the usual limits of such assays
Conditions: source organism: Influenza A virus (A/duck/Hokkaido/1130/01(H1N1))
measure: Kd

- ELRSRYWAI: ≥ 20 µM

---

Target: HLA-A*02:03
Experiment: IEDB peptide-MHC binding, purified MHC/competitive/radioactivity; filed as Kd, often an IC50 or EC50 that approximates it; bounds were set here for any values at or beyond the usual limits of such assays
Details: source organism: Lassa virus Josiah
pKd: −log10 of the molar value.
measure: pKd

- LISIFLHLV: 7.68

---

Molecular target: HLA-C*03:03
Experiment: IEDB peptide-MHC binding, purified MHC/direct/fluorescence; filed as Kd, often an IC50 or EC50 that approximates it; bounds were set here for any values at or beyond the usual limits of such assays
Details: source organism: Yellow fever virus
pKd: −log10 of the molar value.
measure: pKd

• YLIIGILTL = 7.74
